The compounds below each have a reported pIC50 tested on Pancreatic triacylglycerol lipase (Sus scrofa, UniProt P00591); the values come from various publications.
Sequence (P00591 whole entry): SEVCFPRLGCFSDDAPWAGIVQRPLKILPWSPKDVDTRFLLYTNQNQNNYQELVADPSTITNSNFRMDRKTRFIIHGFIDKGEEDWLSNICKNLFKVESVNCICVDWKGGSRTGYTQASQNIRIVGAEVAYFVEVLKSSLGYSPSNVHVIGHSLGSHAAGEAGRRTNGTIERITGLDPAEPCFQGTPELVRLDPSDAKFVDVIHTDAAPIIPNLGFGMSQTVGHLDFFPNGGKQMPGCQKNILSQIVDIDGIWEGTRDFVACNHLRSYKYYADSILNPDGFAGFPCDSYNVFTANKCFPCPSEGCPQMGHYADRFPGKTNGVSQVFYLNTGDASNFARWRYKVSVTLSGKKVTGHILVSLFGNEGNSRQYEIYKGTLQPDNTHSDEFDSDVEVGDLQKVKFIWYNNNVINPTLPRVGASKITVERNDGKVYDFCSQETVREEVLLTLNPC
pIC50: −log10 of the molar value.

{"columns": ["COMPOUND SMILES", "TARGET OR TEST SYSTEM", "pIC50"],
 "data": [
  ["CC[C@H](C)[C@H](NC(=O)OC(C)(C)C)C(=O)NCCCN", "Pancreatic triacylglycerol lipase (Sus scrofa, UniProt P00591)", 2.99],
  ["CC(=NCCN1CCNCC1)c1ccc(Cl)s1", "Pancreatic triacylglycerol lipase (Sus scrofa, UniProt P00591)", 2.93],
  ["C[C@H]1O[C@H](C)[C@@H](O)C2=C1C(=O)c1c(O)cc(O)c(-c3c4c(c(O)c5c(O[C@@H]6O[C@H](CO)[C@@H](O)[C@H](O)[C@H]6O)cc(O)cc35)[C@@H](C)O[C@H](C)[C@H]4O)c1C2=O", "Pancreatic triacylglycerol lipase (Sus scrofa, UniProt P00591)", 4.51]
]}
